// values below are IC50; system is UniProtKB Q64077
Sequence (Q64077 whole entry): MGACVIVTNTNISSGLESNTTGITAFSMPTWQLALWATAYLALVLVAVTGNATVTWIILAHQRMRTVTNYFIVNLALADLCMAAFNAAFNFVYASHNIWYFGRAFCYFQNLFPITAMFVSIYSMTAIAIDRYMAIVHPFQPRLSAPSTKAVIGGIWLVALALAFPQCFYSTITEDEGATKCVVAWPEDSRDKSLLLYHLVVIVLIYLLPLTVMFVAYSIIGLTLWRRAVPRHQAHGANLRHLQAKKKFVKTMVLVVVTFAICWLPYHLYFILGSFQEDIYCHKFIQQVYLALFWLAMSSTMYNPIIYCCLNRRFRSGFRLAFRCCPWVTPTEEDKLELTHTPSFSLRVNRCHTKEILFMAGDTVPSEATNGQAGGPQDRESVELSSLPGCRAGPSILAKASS

>>> readout_value("COc1cc(C(=O)N2CO[C@](CCN3CCC4(CC3)C(=O)N(C)c3ccccc34)(c3ccc(Cl)c(Cl)c3)C2)cc(OC)c1OC")
"51.9 nM"
>>> readout_value("COc1cc(C(=O)N2CO[C@](CCN3CCC(C(N)=O)(c4ccccc4)CC3)(c3ccc(Cl)cc3)C2)cc(OC)c1OC")
"329 nM"
>>> readout_value("COc1cc(C(=O)N2CO[C@](CCN3CCC4(CC3)c3ccccc3CS4(=O)=O)(c3ccc(Cl)c(Cl)c3)C2)cc(OC)c1OC")
"28.1 nM"
>>> readout_value("COc1cc(C(=O)N2CO[C@](CCN3CCC4(CC3)c3ccccc3C[S+]4[O-])(c3ccc(Cl)cc3)C2)cc(OC)c1OC (stereo partly drawn)")
"11 nM"
>>> readout_value("COc1ccc(C(=O)N2CO[C@](CCN3CCC(C(N)=O)(c4ccccc4)CC3)(c3ccc(Cl)c(Cl)c3)C2)cc1")
"292 nM"
>>> readout_value("COc1cc(C(=O)N2CO[C@](CCN3CCC(C(N)=O)(c4ccccc4)CC3)(c3ccc(F)cc3)C2)cc(OC)c1OC")
"744 nM"
>>> readout_value("COc1cc(C(=O)N2CO[C@](CCN3CCC(C(=O)N(C)C)(c4ccccc4)CC3)(c3ccc(Cl)cc3)C2)cc(OC)c1OC")
"7.39 nM"
>>> readout_value("COc1cc(C(=O)N2CO[C@](CCN3CCC(C(N)=O)(c4ccccc4)CC3)(c3ccc(F)c(F)c3)C2)cc(OC)c1OC")
"328 nM"
>>> readout_value("COc1cc(C(=O)N2CO[C@](CCN3CCC(C(N)=O)(c4ccccc4)CC3)(c3ccc(Cl)c(Cl)c3)C2)cc(OC)c1OC")
"142 nM"
>>> readout_value("COc1cc(C(=O)N2CO[C@](CCCN3CCC(C(N)=O)(c4ccccc4)CC3)(c3ccc(Cl)c(Cl)c3)C2)cc(OC)c1OC")
"> 1520 nM"

input: Which IC50 value belongs to `COc1cc(C(=O)N2CO[C@](CCN3CCC(C(=O)N(C)C)(c4ccccc4)CC3)(c3ccc(F)cc3)C2)cc(OC)c1OC` ?
output: 15 nM

input: Now consider `COc1cc(C(=O)N2CO[C@](CCN3CCC4(CC3)NC(=O)Cc3ccccc34)(c3ccc(F)c(F)c3)C2)cc(OC)c1OC` and answer again.
output: 10.9 nM

input: Also need `COc1cc(C(=O)N2CO[C@](CCN3CCC(O)(c4ccncc4)CC3)(c3ccc(Cl)c(Cl)c3)C2)cc(OC)c1OC` , thanks.
output: 144 nM

input: What do you get for `COc1cc(C(=O)N2CO[C@](CCN3CCC(C(=O)N4CCOCC4)(c4ccccc4)CC3)(c3ccc(Cl)c(Cl)c3)C2)cc(OC)c1OC` ?
output: 73 nM

input: Now give it for `COc1cc(C(=O)N2CO[C@](CCN3CCC(C(=O)N(C)C)(c4ccccc4)CC3)(c3ccc(Cl)c(Cl)c3)C2)cc(OC)c1OC` too.
output: 8.2 nM

input: Now the same for COc1cc(C(=O)N2CO[C@](CCN3CCC4(CC3)c3ccccc3C[S+]4[O-])(c3ccc(Cl)c(Cl)c3)C2)cc(OC)c1OC (stereo partly drawn)
output: 11.4 nM

input: Thanks! And `COc1cc(C(=O)N2CO[C@](CCN3CCC4(CC3)NC(=O)Cc3ccccc34)(c3ccc(Cl)cc3)C2)cc(OC)c1OC` ?
output: 5.16 nM

input: How about this molecule: `COc1cc(C(=O)N2CO[C@](CCN3CCN(c4ccc(C(C)=O)cc4)CC3)(c3ccc(Cl)c(Cl)c3)C2)cc(OC)c1OC`
output: 115 nM
